B1: Tesmin, residues 368 to 403; numbered along this chain, Q9Y4I5 (parent)
chain: KGCNCRRSGCLKNYCECYEAQIMCSSICKCIGCKNY

# Variants of: B1
# Measurement description: abundance fitness (aPCA) (normalised: wild type 0, dead -1); higher = more abundant; growth selection in yeast, the domain comes from the species named
# Test context: Homo sapiens

[
  {
    "Record sequence": "KGCNCRRSGCLKNYCECYEAQIMGSSICKCIGCKNY",
    "abundance fitness": -0.008
  },
  {
    "Record sequence": "KGCNCRRSGCLKNYCECYEAQIMCSSICKCIGKKNY",
    "abundance fitness": -0.123
  },
  {
    "Record sequence": "KGCNCRRSGCLKNYCECYEAQIMMSSICKCIGCKNY",
    "abundance fitness": -0.378
  },
  {
    "Record sequence": "KGCNCRRSGCLKNYCECYEAQIMCSSICSCIGCKNY",
    "abundance fitness": 0.051
  },
  {
    "Record sequence": "KGCNCRRSGCLKNYCECYEAQIMCSSICKCIGTKNY",
    "abundance fitness": -0.14
  },
  {
    "Record sequence": "KGCNMRRSGCLKNYCECYEAQIMCSSICKCIGCKNY",
    "abundance fitness": -0.286
  },
  {
    "Record sequence": "KGCSCRRSGCLKNYCECYEAQIMCSSICKCIGCKNY",
    "abundance fitness": -0.103
  },
  {
    "Record sequence": "KGCNCRRSGCLKNYCECYEAQFMCSSICKCIGCKNY",
    "abundance fitness": -0.088
  },
  {
    "Record sequence": "KGCNCRRSSCLKNYCECYEAQIMCSSICKCIGCKNY",
    "abundance fitness": -0.795
  },
  {
    "Record sequence": "KGCNCRRSGCCKNYCECYEAQIMCSSICKCIGCKNY",
    "abundance fitness": -0.567
  },
  {
    "Record sequence": "KGCNCRRSGCLKNKCECYEAQIMCSSICKCIGCKNY",
    "abundance fitness": -0.02
  },
  {
    "Record sequence": "KGCNCRRSGCLKNYCECYEAQIMCSSICKCICCKNY",
    "abundance fitness": -0.592
  },
  {
    "Record sequence": "KGCNHRRSGCLKNYCECYEAQIMCSSICKCIGCKNY",
    "abundance fitness": 0.066
  },
  {
    "Record sequence": "KGCNCRRSGCSKNYCECYEAQIMCSSICKCIGCKNY",
    "abundance fitness": -0.134
  },
  {
    "Record sequence": "KGCNCRRSGCLKNYCECYEAQIMCSSILKCIGCKNY",
    "abundance fitness": -0.738
  },
  {
    "Record sequence": "KGCNCRRSGCLKNYGECYEAQIMCSSICKCIGCKNY",
    "abundance fitness": -0.305
  },
  {
    "Record sequence": "KGCNCRRSGCLKNYCECYEAQIMCSSIGKCIGCKNY",
    "abundance fitness": -0.219
  },
  {
    "Record sequence": "KGCNCRRSGCLKNYCECYEAQIMCSSACKCIGCKNY",
    "abundance fitness": 0.162
  },
  {
    "Record sequence": "KGCNCRRSGCLKNYCECMEAQIMCSSICKCIGCKNY",
    "abundance fitness": 0.098
  },
  {
    "Record sequence": "KGCNCRRSGCLKNYCECYEAQIMCSSICKCIGCKNS",
    "abundance fitness": -0.016
  },
  {
    "Record sequence": "KGCNCRRSGCLKNYCYCYEAQIMCSSICKCIGCKNY",
    "abundance fitness": -0.577
  },
  {
    "Record sequence": "KGCNCRLSGCLKNYCECYEAQIMCSSICKCIGCKNY",
    "abundance fitness": -0.021
  },
  {
    "Record sequence": "KGCNCRRSGCLKNYCECYEAQIMCSSICKCIGCTNY",
    "abundance fitness": 0.057
  },
  {
    "Record sequence": "KGCNCRRSGCLKNYCECYEEQIMCSSICKCIGCKNY",
    "abundance fitness": -0.082
  },
  {
    "Record sequence": "KGCNCRRSGCLKNPCECYEAQIMCSSICKCIGCKNY",
    "abundance fitness": 0.145
  },
  {
    "Record sequence": "KGCNCRRSGCLKNYCECYEAQIMCSSIEKCIGCKNY",
    "abundance fitness": -0.157
  },
  {
    "Record sequence": "KGCNCRRSGCLKNYCECYEAQIMCSSICKVIGCKNY",
    "abundance fitness": -0.352
  },
  {
    "Record sequence": "KGCNCRRSGCLKNYCECYEAQIMCSSICKCIGPKNY",
    "abundance fitness": -0.014
  }
]
